Data provenance is PubChem BioAssay (NCI).

System: SF-539 CNS
PROTOCOL DESCRIPTION: NCI-60 one-dose screen, 48 h (100 = growth as untreated, 0 = no growth, -100 = all killed)
STUDY CONDITIONS: 10 µM
About 83,000 compounds went through this panel and 20% of them were active in at least one assay; those are over-represented in the sample as a whole.
Label rule, in plain words: growth of 90% and up is rule met, under 90% is rule not met.

{"columns": ["MOLECULE", "ANSWER LABEL"],
 "data": [
  ["O=C(/C=C/Nc1ccccc1)c1ccc2c(c1)Nc1ccccc1S2", "rule not met"],
  ["COc1ccc([C@H]2C(C(=O)c3ccc(Cl)cc3)C3(N[C@@H]2c2ccccc2)C(=O)Nc2ccc(Cl)cc23)cc1 (some centres undefined)", "rule not met"],
  ["COc1ccc(CN2[C@H](C(=O)NCc3ccc(C(=O)NO)cc3)Cc3c([nH]c4ccccc34)[C@H]2C2CC2)cc1", "rule not met"],
  ["Cc1ccc(CSc2nc(-c3ccc(F)cc3)c(C#N)c(=O)[nH]2)cc1", "rule met"],
  ["COc1ccc(CCN2C(=O)/C(=C/c3csc(C#N)n3)SC2=S)cc1OC", "rule not met"],
  ["Cc1ccc(-c2nc3ccc(C(=O)N=Nc4c(O)[nH]c5ccc(Br)cc45)cc3[nH]2)cc1", "rule not met"]
]}

Ask: Entry N#Cc1ccc(-c2nn(-c3ccc(C(=O)O)cc3)cc2CNc2ccc(Oc3ccccc3)cc2)cc1 : is its growth no less than 90%?
Reply: rule not met

Ask: Does the reported growth for O=c1c2ccccc2nc(COc2ccccc2)n1/N=C/c1ccc(N2CCCC2)cc1 fall at or above the 90% mark?
Reply: rule met

====

System: SF-295 CNS
PROTOCOL DESCRIPTION: NCI-60 one-dose screen, 48 h (100 = growth as untreated, 0 = no growth, -100 = all killed)
STUDY CONDITIONS: 10 µM
This is part of a sample that, as a whole, favours compounds with a hit. Of some 83,000 tested, about 20% had one in any assay.
Given measured growth, output t if it is greater than or equal to 40% and f if not.

{"columns": ["COMPOUND", "ANSWER LABEL"],
 "data": [
  ["COc1ccc(-c2ccc(/C=N/NC(=O)c3[nH]c4ccc(Br)cc4c3-c3ccccc3)s2)cc1", "t"],
  ["Clc1ccc2c(N/N=C/c3c[nH]c4ccc(Br)cc34)ccnc2c1", "f"],
  ["Cc1ccc(/C=C/C(=O)c2ccc(NC(=O)CSc3nnc(-c4c[nH]c5ccccc45)n3-c3ccccc3)cc2)c(C)c1", "t"],
  ["CC1(C)CC[C@]2(C(=O)N3CCOCC3)CC[C@]3(C)C(=CC[C@@H]4[C@@]5(C)CC[C@H](NCO)C(C)(C)[C@@H]5CC[C@]43C)[C@H]2C1", "f"],
  ["COc1ccc(N2N=C(c3ccc4c(c3)OCCO4)CC2c2cccc(NC(=O)CCCNS(=O)(=O)c3ccc(F)cc3)c2)cc1 (configuration not stated)", "t"]
]}

Ask: Identify whether the reported growth of the following compound is 40% or greater: Nc1n[nH]c2cccc(C#Cc3cccc(NC(=O)Nc4cc(C(F)(F)F)cc(C(F)(F)F)c4)c3)c12
Reply: f

Ask: hey, is growth for this one >= 40%? CC[C@@]1(O)C(=O)OCc2c1cc1n(c2=O)Cc2c-1nc1cc(F)c(C)c3c1c2[C@@H](N)CC3
Reply: f

Ask: For this compound, is measured growth 40% or higher? CC(C)C1=C[C@@]23CC[C@@H]4[C@](C)(CCC[C@]4(C)C(=O)NCc4ccccc4)[C@H]2C[C@@H]1[C@H]1C(=O)CCC(=O)[C@H]13
Reply: t

Ask: Quick check: does O=C(c1ccc(O)cc1)C1[C@H](c2ccc(Br)cc2)[C@@H](c2ccccc2)NC12C(=O)Nc1ccc(Br)cc12 (some centres not stated) have growth greater than or equal to 40%?
Reply: f

Ask: In plain terms: is recorded growth at least 40% for COc1ccc([C@H]2C(C(=O)c3ccc(Cl)cc3)C3(N[C@@H]2c2ccccc2)C(=O)Nc2ccc(Cl)cc23)cc1 (some centres not stated) ?
Reply: f

Ask: Could you verify whether the entry O=C(c1ccc(Cl)cc1)C1[C@H](c2ccccc2Br)[C@@H](c2ccccc2)NC12C(=O)Nc1ccccc12 (some centres not stated) shows growth of no less than 40%?
Reply: f

Ask: Test whether the compound N#Cc1ccc(-c2nn(-c3ccc(C(=O)O)cc3)cc2CNc2cc(Cl)cc(C(F)(F)F)c2)cc1 records growth of 40% or higher.
Reply: f

Ask: Is the recorded value of growth equal to or greater than 40% for this compound? CN1C(=O)N(C)C2SC(N/N=C/c3ccccc3F)=NC21 (configuration not stated)
Reply: t

====

System: MDA-MB-231 breast
PROTOCOL DESCRIPTION: NCI-60 one-dose screen, 48 h (100 = growth as untreated, 0 = no growth, -100 = all killed)
STUDY CONDITIONS: 10 µM
The panel holds about 83,000 compounds, 20% with a hit somewhere; the sample as a whole holds those more often.
MEASUREMENT LABEL: growth (%)
The figure you give is taken to be in %; do not add the unit.

Study these solved cases before continuing.
{"columns": ["MOLECULE", "READOUT UNIT", "NUMERIC RESULT"],
 "data": [
  ["CCCCCc1ccc(S(=O)(=O)N(C(C)=O)c2cc(-c3csc(N(C)C(C)=O)n3)ccc2N2CCN(C)CC2)cc1", "%", -5.42],
  ["COc1cccc2nc(Nc3cccc(NC(=O)c4ccc(CN5CCCN(C)CC5)c(C(F)(F)F)c4)c3)ccc12", "%", -99.1],
  ["[2H]C([2H])([2H])Oc1ccc2ncc(C#Cc3cncc(C(=O)Nc4ccc(CN5CCN(C)CC5)c(C(F)(F)F)c4)c3)n2n1", "%", -90.5],
  ["Nc1nnc(-c2c[nH]c3ncccc23)c(-c2c[nH]c3ccc(Br)cc23)n1", "%", 41.6]
]}

// below: growth requested for another molecule
GET /value?item= CC(C)c1ccc(C(=O)Nc2sc3c(c2C(N)=O)CCC(=O)C3=O)cc1 &field=growth returns 93.3

====

growth listing for selected compounds.
Tested on: NCI-H322M lung
PROTOCOL DESCRIPTION: NCI-60 one-dose screen, 48 h (100 = growth as untreated, 0 = no growth, -100 = all killed)
STUDY CONDITIONS: 10 µM
This is part of a sample that, as a whole, favours compounds with a hit. Of some 83,000 tested, about 20% had one in any assay.
Provide the reading as a plain figure in %.

Examples with answers:
{"columns": ["COMPOUND SMILES", "READOUT UNIT", "growth"],
 "data": [
  ["COc1cccc(/C=N/NC(=O)c2ccc3nc(-c4ccc(Cl)cc4)[nH]c3c2)c1O", "%", -81.6],
  ["O=C(CNc1nc(-c2ccccc2)cs1)Nc1cccc(Cl)c1", "%", 62.3],
  ["O=C(Nc1ccc(I)cc1)Nc1nc2ccc([N+](=O)[O-])cc2s1", "%", -86.6],
  ["CC(C)CCSc1nc(NC2CC2)c(C#N)c(-c2ccc(C(C)C)cc2)n1", "%", 113]
]}

Entry Cc1noc2c(Cc3ccccc3)nn(CC(=O)N/N=C/c3ccc(Cl)cc3)c(=O)c12 , growth reported as 96.3

====

System: HCC-2998 colon
PROTOCOL DESCRIPTION: NCI-60 one-dose screen, 48 h (100 = growth as untreated, 0 = no growth, -100 = all killed)
STUDY CONDITIONS: 10 µM
This is part of a sample that, as a whole, favours compounds with a hit. Of some 83,000 tested, about 20% had one in any assay. The source made the active and inactive calls. The calls were made as follows: active = growth percent below 10; inactive = the rest.
MEASUREMENT LABEL: growth

Examples with answers:
{"columns": ["COMPOUND", "growth"],
 "data": [
  ["Cc1cccc(NC(=O)CSc2nc3ccc(F)cc3c(=O)n2-c2ccc(Cl)cc2)c1C", "94.5% (inactive)"],
  ["O=C1CCC(N2Cc3c(C#CCCCNC(=O)c4ccc(NC(=O)[C@@H]5NC6(CCCCC6)[C@@]6(C(=O)Nc7cc(Cl)ccc76)[C@H]5c5cccc(Cl)c5F)cc4)cccc3C2=O)C(=O)N1 (stereo partly drawn)", "58.6% (inactive)"],
  ["O=C(NC(=S)N1CCN(c2ncnc3c2cnn3-c2ccccc2)CC1)c1ccc(Cl)cc1", "82.6% (inactive)"],
  ["Cc1cc2nc3c4ccccc4n(CCO)c3nc2cc1C", "123% (inactive)"],
  ["CCOP(=O)(OCC)O[C@H]1CCC(=O)[C@@H]2[C@H]1[C@H]1C[C@@H]3[C@@]4(C)CCCC(C)(C(=O)OC)[C@@H]4CC[C@@]23C=C1C(C)C (stereo partly drawn)", "58.9% (inactive)"],
  ["Cc1ccc(NC(=O)NCn2c(=O)[nH]c3ccccc3c2=O)cc1", "102% (inactive)"],
  ["O=C(O)CCCCCCCCCCN1C(=O)/C(=C/c2cnc(-c3ccc(Cl)cc3)s2)SC1=S", "82.4% (inactive)"]
]}

Below: the item to evaluate.
Measured growth, CN1CCc2c(sc3ncnc(N/N=C/c4ccc5ccccc5c4)c23)C1 : 73.8% (inactive)
